B1: Pistol ribozyme (parent)
chain: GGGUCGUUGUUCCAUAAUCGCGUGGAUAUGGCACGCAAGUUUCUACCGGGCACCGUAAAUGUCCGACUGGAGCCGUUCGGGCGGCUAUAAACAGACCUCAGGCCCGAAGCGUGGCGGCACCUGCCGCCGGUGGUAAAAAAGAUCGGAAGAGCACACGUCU

- Variants of: B1
- experiment_summary: aptazyme ON/OFF ratio, guanine; higher = stronger switching; co-transcriptional cleavage with and without guanine
parameter: aptazyme ON/OFF ratio
Give bare numbers.

Okay, here is my list. What is aptazyme ON/OFF ratio for each of these?
1. U7C U8A U10G U11G C12U C13U
2. U8A C12G C13G
3. U7C U8A G9A U10C U11G C13U

1: 1.44; 2: 1.18; 3: 1.1
